Recorded Area under the dose-response curve (AUC) UISO Replicate 1 for the following compounds
# Test system: UISO cells (VN-MCC)
# Run description: qHTS cell viability (CellTiter-Glo, 72 h; primary and follow-up small molecule screen)
# Format: cell-based, human
# Assay setup: follow-up screen; UISO; replicate 1

Observe how each entry below is paired with its result.
[[record]]
compound = "COc1ccc(C(=O)CC(=O)c2ccc(C(C)(C)C)cc2)cc1"
measured_value = 448.1

[[record]]
compound = "O=c1c(O)c(-c2ccccc2)oc2cc(O)cc(O)c12 [GALANGIN]"
measured_value = 448.5

[[record]]
compound = "COc1c(C)c2c(c(O)c1C/C=C(\\C)CCC(=O)OCCN1CCOCC1)C(=O)OC2 [Mycophenolate mofetil]"
measured_value = 348.1

[[record]]
compound = "CCc1c2c(nc3ccc(O)cc13)-c1cc3c(c(=O)n1C2)COC(=O)[C@]3(O)CC"
measured_value = 127.3

[[record]]
compound = "O=C(CCN1CCC(c2ccccc2)C1)c1ccc2c(c1)OCCO2 (stereo not drawn)"
measured_value = 440.8


Exam item: Report Area under the dose-response curve (AUC) UISO Replicate 1 for CCCCCCC[N+](CC)(CC)CCCCc1ccc(Cl)cc1.Cc1ccc(S(=O)(=O)[O-])cc1 [Clofilium tosylate] please.
Marked response: 319.6

Exam item: Endpoint output: Area under the dose-response curve (AUC) UISO Replicate 1 of Nc1ccc(C(=O)Nc2ccccc2N)cc1 . Value?
Marked response: 377.0

Exam item: Entry N#CC(=C(/N)Sc1ccccc1N)/C(C#N)=C(\N)Sc1ccccc1N : reported Area under the dose-response curve (AUC) UISO Replicate 1 = ?
Marked response: 414.2

Exam item: What Area under the dose-response curve (AUC) UISO Replicate 1 value was documented for this compound, C[C@@H]1O[C@@H](O[C@H]2C[C@@H](O)[C@]3(CO)[C@H]4[C@H](O)C[C@]5(C)[C@@H](C6=CC(=O)OC6)CC[C@]5(O)[C@@H]4CC[C@]3(O)C2)[C@H](O)[C@H](O)[C@H]1O ?
Marked response: 241.1

Exam item: Please report the recorded Area under the dose-response curve (AUC) UISO Replicate 1 for COc1ccc2c(c[n+](C)c3c4cc5c(cc4ccc23)OCO5)c1OC [Chelerythrine chloride] .
Marked response: 417.2
